Recorded pIC50 values (UniProt:P22303) are given below.
Sequence (P22303 whole entry): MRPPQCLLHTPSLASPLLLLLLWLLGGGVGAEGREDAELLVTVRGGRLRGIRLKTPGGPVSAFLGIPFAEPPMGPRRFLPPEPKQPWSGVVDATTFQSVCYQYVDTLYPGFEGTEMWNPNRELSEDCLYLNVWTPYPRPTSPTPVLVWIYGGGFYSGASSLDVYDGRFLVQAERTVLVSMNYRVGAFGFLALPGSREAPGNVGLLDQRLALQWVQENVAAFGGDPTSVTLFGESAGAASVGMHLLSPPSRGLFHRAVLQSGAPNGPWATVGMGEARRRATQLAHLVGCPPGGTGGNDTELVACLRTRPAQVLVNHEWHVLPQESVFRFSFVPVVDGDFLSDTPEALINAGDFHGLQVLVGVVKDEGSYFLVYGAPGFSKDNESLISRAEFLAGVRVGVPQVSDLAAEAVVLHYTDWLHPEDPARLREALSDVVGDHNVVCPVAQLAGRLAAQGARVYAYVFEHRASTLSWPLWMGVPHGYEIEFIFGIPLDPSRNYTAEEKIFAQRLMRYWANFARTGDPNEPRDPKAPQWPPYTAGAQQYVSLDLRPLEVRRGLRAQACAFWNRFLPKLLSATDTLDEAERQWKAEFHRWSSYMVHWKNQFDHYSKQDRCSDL
API: returns pIC50 as number; meaning -log10 of concentration in mol/L.

Ask: Identify the reported pIC50 for the following entry. CCCCCCCNC(=O)Oc1ccc2c(c1)[C@]1(C)CCN(C)[C@@H]1N2C
Result: 6.90

Ask: Identify the reported pIC50 for the following entry. c1ccc2c(c1)CN1CCCCCCC1=N2
Result: 5.04

Ask: Identify the reported pIC50 for the following entry. c1ccc2c(c1)CN1CCCCCCCC1=N2
Result: 4.87

Ask: Identify the reported pIC50 for the following entry. c1ccc2c(c1)CN1CCCC1=N2
Result: 5.43

Ask: Identify the reported pIC50 for the following entry. c1ccc2c(c1)CN1CCCCCC1=N2
Result: 5.42

Ask: Identify the reported pIC50 for the following entry. c1ccc2c(c1)CN1CCCCC1=N2
Result: 5.44

Reference source for all entries: ChEMBL document CHEMBL1150531
